- assay summary: xn = mol fraction of the nth substance listed
- experimental context: 288.15 K; 101.32 kPa; Liquid; x2 = 0.95
value kind: mass density (kg/m3)
Quick note: give the figure in kg/m3, leave out the unit.

For orientation, consider the following solved cases.
Exercise: For CCCCCl [1-chlorobutane] + CO , what is its reported mass density?
Key: 806.6

Exercise: Now try CCCCCl [1-chlorobutane] + CCCO .
Key: 813.5

Exercise: Now try CCCCCl [1-chlorobutane] + CCO .
Key: 802.2

Now consider a different compound.
Exercise: For CCCCCl [1-chlorobutane] + CCCCO , what is its reported mass density?
Key: 818.1
